target: IL-17A(FLAG-Tagged): IL-17RA(His-Tagged) (Homo sapiens, UniProt Q16552, K93Q); experiment: IL-17A(FLAG-Tagged): IL-17RA(His-Tagged) Binding Disruption Eu-HTRF Assay; conditions: IL-17A/IL-17RA binding disruption, simple average if tested more than once
Sequence (Q16552 with tags, fused parts or gaps K93Q): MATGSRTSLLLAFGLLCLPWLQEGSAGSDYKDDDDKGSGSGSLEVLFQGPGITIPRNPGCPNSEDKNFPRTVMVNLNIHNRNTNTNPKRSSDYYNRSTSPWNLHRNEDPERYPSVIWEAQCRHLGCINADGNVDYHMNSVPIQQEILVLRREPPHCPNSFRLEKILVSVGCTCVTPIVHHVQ
pIC50: −log10 of the molar value.
measuredQuantity: pIC50

Solved cases below.
{"molecule": "CC(n1nccc1C(=O)N[C@H](c1cn2ncc([C@H](NC(=O)CCC(F)(F)F)C3CC3)cc2n1)C1CCC(F)(F)CC1)C(F)(F)F (single isomer, unassigned) [Example 116]", "tgt": "IL-17A(FLAG-Tagged): IL-17RA(His-Tagged) (Homo sapiens, UniProt Q16552, K93Q)", "measurement": 7.00}
{"molecule": "O=C(CCC(F)(F)F)N[C@@H](c1cnn2cc([C@@H](NC(=O)c3cccc(C(F)(F)F)n3)C3CCC(F)(F)CC3)nc2c1)C1CC1", "tgt": "IL-17A(FLAG-Tagged): IL-17RA(His-Tagged) (Homo sapiens, UniProt Q16552, K93Q)", "measurement": 4.80}
{"molecule": "O=C(N[C@H](c1cn2ncc([C@H](NC(=O)[C@@H](O)CC(F)(F)F)C3CC3)cc2n1)C1CCC(F)(F)CC1)c1cnn(CC(F)(F)F)n1 (relative stereo)", "tgt": "IL-17A(FLAG-Tagged): IL-17RA(His-Tagged) (Homo sapiens, UniProt Q16552, K93Q)", "measurement": 6.44}

[A] N#CC1(C(NC(=O)C(F)(F)CC2CC2)c2cnn3cc([C@@H](NC(=O)c4nonc4C4CC4)C4CCC(F)(F)CC4)nc3c2)CC1 (single isomer, unassigned)
[B] Cc1nonc1C(=O)N[C@H](c1cn2ncc(C(NC(=O)CC3(C(F)(F)F)CC3)C3(C#N)CC3)cc2n1)C1CCC(F)(F)CC1 (single isomer, unassigned) [Example 432]
(Q) Sorting ascending by pIC50, which comes first: A or B ? Give the label of your selection.
(A) B
